testedSystem: T1, human PD-1-his protein (Cat#:PD1-H5221, Acro biosystems Inc.) (human, UniProt Q15116 25-167)
T1 construct: not shown: his tag
T1 sequence (Q15116 25-167 limits assumed): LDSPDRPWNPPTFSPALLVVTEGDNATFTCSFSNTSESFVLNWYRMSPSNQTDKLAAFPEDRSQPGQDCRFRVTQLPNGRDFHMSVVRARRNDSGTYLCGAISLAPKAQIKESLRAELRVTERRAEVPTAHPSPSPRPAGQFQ
assayMethodText: BLI (Octet RED96), supernatant antibody captured on AHC sensor, human PD-1-his in solution, 1:1 fit
quantityName: Kd (nM)
Numeric only. Scale: nM

[
  {
    "binder": "humanized antibody huE1A9C8A7-V7 (antibody, human IgG4 S228P, kappa, V domains shown, Human IgG4/kappa) VH: QVQLVQSGAEVVKPGASVKISCKASGYTFTDYVMHWVRQAPGQGLEWIGVISTYHIPAVYNQKFKGKATMTVDTSTSTVYLELSSLRSEDTAVYYCAREVYGDSYYFDVWGQGTTVTVSS VL: DIVMTQTPLSLPVTPGEPASISCRSSQSIVHSNGNTYLEWYLQKPGQSPQLLIYKVSNRFSGVPDRFSGSGSGTDFTLKISRVEAEDVGVYYCFQGSHVPYTFGGGTKVEIKR",
    "number": 1.5
  },
  {
    "binder": "humanized antibody huE1A9C8A7-V10 (antibody, human IgG4 S228P, kappa, V domains shown, Human IgG4/kappa) VH: QVQLVQSGAEVVKPGASVKISCKASGYTFTDYVMHWVRQAPGQSLEWIGVISTYHIPAVYNQKFKGKVTMTVDTSTSTVYLELSSLRSEDTAVYYCAREVYGDSYYFDVWGQGTTVTVSS VL: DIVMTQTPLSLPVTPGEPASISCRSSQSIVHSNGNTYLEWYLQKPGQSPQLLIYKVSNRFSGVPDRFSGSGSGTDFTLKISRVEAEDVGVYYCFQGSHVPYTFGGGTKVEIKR",
    "number": 1.59
  }
]

The record that follows has no Kd shown yet.
Kd measured on humanized antibody huE1A9C8A7-V4 (antibody, human IgG4 S228P, kappa, V domains shown, Human IgG4/kappa) VH: QVQLVQSGAEVVKPGASVKISCKASGYTFSDYVMHWMRQAPGQSLEWIGVISTYHIPAVYNQKFKGKATMTVDTSTSTVYLELSSLRSEDTAVYYCAREVYGDSYYFDVWGQGTTVTVSS VL: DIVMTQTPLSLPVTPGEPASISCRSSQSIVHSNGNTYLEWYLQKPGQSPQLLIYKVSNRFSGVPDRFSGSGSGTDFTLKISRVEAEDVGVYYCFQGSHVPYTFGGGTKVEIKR = 1.49
